The entries below come with measured log10 of GI50 values attached.
Tested on: NCI-60 cancer cell lines
assay name: NCI-60 cancer cell line drug screen (GI50, MGM)
Type: cell-based, human
details: Homo sapiens, HOP-62, Non-Small Cell Lung Cancer, HOP-62; read-out: Antiproliferative Activities [GI50 (μM)]
value kind: log10 of GI50 (log10 of the value in µM)

- structure: "CN(C)CCCn1c2c(c3cccnc3c1=O)C(=O)c1ccccc1-2"
  log10 of GI50: 0.10
- structure: "COc1ccc2c(c1)C(=O)c1c-2n(CCCN2CCOCC2)c(=O)c2ccccc12"
  log10 of GI50: 0.15
- structure: "COc1cc2c3c(n(CCCN4CCC(N)CC4)c(=O)c2cc1OC)-c1cc2c(cc1C3=O)OCO2"
  log10 of GI50: -0.38
- structure: "COc1cc2c(cc1O)-c1c(c3ccc([N+](=O)[O-])cc3c(=O)n1CCCn1ccnc1)C2=O"
  log10 of GI50: -0.23
- structure: "O=C1c2ccccc2-c2c1c1ccccc1c(=O)n2CCCNCCO"
  log10 of GI50: -1.52
- structure: "CN(C)CCCn1c2c(c3ccc(-c4ccn[nH]4)cc3c1=O)C(=O)c1ccccc1-2"
  log10 of GI50: -0.74
- structure: "COc1cnc2c(c1)C(=O)c1c-2n(CCCNC(C)C)c(=O)c2cc(F)ccc12"
  log10 of GI50: -0.96
- structure: "CN(C)CCCn1c2c(c3ccc(N4CCNCC4)cc3c1=O)C(=O)c1ccccc1-2"
  log10 of GI50: 0.03
- structure: "CNCCCn1c2c(c3ccc(F)cc3c1=O)C(=O)c1cc(OC)cnc1-2"
  log10 of GI50: -0.85
- structure: "COc1cc2c3c(n(CCCNCCN)c(=O)c2cc1OC)-c1cc2c(cc1C3=O)OCO2"
  log10 of GI50: -1.30
- structure: "COc1cnc2c(c1)C(=O)c1c-2n(CCCNC2=NCCS2)c(=O)c2cc([N+](=O)[O-])ccc12"
  log10 of GI50: -2.00
- structure: "COc1cc2c(cc1O)-c1c(c3ccc([N+](=O)[O-])cc3c(=O)n1CCCN)C2=O"
  log10 of GI50: -0.34
